# systemTested: Prostaglandin E2 receptor EP1 subtype (Homo sapiens)
# Sequence (P34995 whole entry): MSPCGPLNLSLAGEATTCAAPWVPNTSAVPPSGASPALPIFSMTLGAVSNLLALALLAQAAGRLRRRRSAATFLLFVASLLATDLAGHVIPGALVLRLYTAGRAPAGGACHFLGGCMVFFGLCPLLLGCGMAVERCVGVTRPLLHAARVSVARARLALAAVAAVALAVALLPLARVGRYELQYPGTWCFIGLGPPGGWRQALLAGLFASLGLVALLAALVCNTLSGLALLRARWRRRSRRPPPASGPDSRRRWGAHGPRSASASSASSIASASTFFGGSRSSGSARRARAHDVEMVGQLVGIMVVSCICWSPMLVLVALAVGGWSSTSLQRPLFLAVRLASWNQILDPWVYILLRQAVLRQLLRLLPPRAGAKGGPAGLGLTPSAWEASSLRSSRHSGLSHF
# testSummary: Antagonist activity of human PGE2 receptor expressed in CHOK1 cells assessed as inhibition of intracellular calcium mobilisation by FLIPR assay
pKi: −log10 of the molar value.
readoutName: pKi

Example results:
INSERT INTO measurements (compound, readoutname, number) VALUES
  ('Cc1cc(C(=O)Nc2ccc(CNCCO)cc2)nn1Cc1cc(Cl)ccc1OCC(C)C', 'pKi', 7.00),
  ('Cc1cc(C(=O)Nc2ccc(CN(CCO)CCO)cc2)nn1Cc1cc(Cl)ccc1OCC(C)C', 'pKi', 7.10);

P: Cc1cc(NC(=O)c2ccc(CN3CCCC3)cc2)nn1Cc1cc(Cl)ccc1OCC(C)C.Cl
Q: Cc1cc(NC(=O)c2ccc(C3CCCN3)cc2)nn1Cc1cc(Cl)ccc1OCC(C)C (centres undefined)
Enquiry: Identify the entry with the smaller pKi: P or Q . // respond with label for picked entry
Return: P

Just for reference, ChEMBL document CHEMBL1155060 is where these values come from.
